Reported GFP fluorescence, lower = active (kMESF (background-subtracted)) values follow for various compounds
# assayNotes: TOR pathway RPL19A-GFP modulators, concentration series – cell-based, S. cerevisiae, flow cytometry, MLPCN hits, dose response (AID 2740);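 also: background is signal of the same compound in parental non-GFP s288c yeast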
# conditionsUsed: S. cerevisiae RPL19A-GFP strain, flow cytometry fluorescence, 3 h; at 33 µM (top of the series)
Activity calls are given as the source filed them.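 The calls were made as follows: active = compounds whose fitted half-maximal concentration for changing the GFP signal is at or below a set limit; inactive = the rest.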
endpointName: GFP fluorescence, lower = active (kMESF (background-subtracted))

Cc1ccc(N=Nc2ccc(O)c3ncccc23)cc1 : 39.8 (inactive)
CCCc1cc(N2CCN(c3ccccn3)CC2)n2nc(C)c(-c3ccccc3)c2n1 : 38.1 (inactive)
CC(=O)CSc1ncnc2c1cnn2-c1ccccc1 : 37.7 (inactive)
